Data credit: the supplement of paper PMC12338614

B1: library; numbered along this chain (parent)
chain: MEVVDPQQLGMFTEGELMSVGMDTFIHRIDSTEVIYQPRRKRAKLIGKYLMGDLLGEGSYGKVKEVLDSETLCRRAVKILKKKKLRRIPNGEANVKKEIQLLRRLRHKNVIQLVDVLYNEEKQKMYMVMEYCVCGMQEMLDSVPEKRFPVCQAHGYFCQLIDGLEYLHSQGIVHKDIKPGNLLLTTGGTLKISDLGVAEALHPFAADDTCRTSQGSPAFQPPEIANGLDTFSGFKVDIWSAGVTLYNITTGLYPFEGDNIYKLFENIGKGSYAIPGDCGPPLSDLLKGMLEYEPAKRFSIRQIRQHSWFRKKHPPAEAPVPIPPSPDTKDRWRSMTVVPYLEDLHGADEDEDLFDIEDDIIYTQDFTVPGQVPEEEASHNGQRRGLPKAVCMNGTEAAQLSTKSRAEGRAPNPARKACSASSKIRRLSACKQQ

# Variants of: B1
# measurementProtocol: STK11 functional score (HeLa growth suppression), rescaled enrichment; synonymous median = 1, nonsense median = 0 (normalised score)
# conditionParameters: with HeLa; variant type: missense
measure: STK11 functional score

- D355Q: 1.28
- G196A: 0.488
- C134W: 0.131
- K108H: 1.26
- M125W: 1.25
- L80W: 1.47
- A347W: 1.59
- I29R: 1.14

Hey, can you go through the list below and give me STK11 functional score for every item?
1. A398E
2. K146W

Output:
1. 1.55
2. 0.507

Hey, can you go through the list below and give me STK11 functional score for every item?
1. K287R
2. S216R
3. R333P
4. P315W
5. P144M

Output:
1: 0.533; 2: -0.166; 3: 1.64; 4: 0.723; 5: 1.17

Hey, can you go through the list below and give me STK11 functional score for every item?
1. S271Q
2. E375P
3. H379I
4. V243G
5. P217F
6. F255G
7. T13V

Output:
1: 1.08; 2: 1.53; 3: 1.53; 4: 0.469; 5: 1.45; 6: 0.519; 7: 1.6
